For each entry below, report its growth inhibition value.
protocol: NCI Yeast Anticancer Drug Screen. Data for the sgs1 mgt1 strain (AID 161);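 note: 0% = growth of cultures given vehicle only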
condition-parameters: S. cerevisiae sgs1 mgt1 strain, at 50.0 µM, hits give high values
About 79,000 compounds went through this panel and 15% of them were active in at least one assay; those are over-represented in the sample as a whole.
Express the result in % but write the number alone.

Kindly note the recorded growth inhibition for CCOC(=O)C(=CNc1cc(C(F)(F)F)ccc1N1CCOCC1)C(=O)OCC , which is -9.5

Recorded result, c1cnn(C23C4C5C6C4C2C6C53)c1 (stereo unspecified) , growth inhibition: -18.7

The molecule CCCCCCCCCCCC(=O)O (tested in a mixture with another compound) showed growth inhibition equal to -41.6

Quick note, growth inhibition for Cc1ccc([N+](=O)[O-])cc1NC(=O)C(=O)C1CCC2=C(Sc3ccccc3N2)C1=O (stereo unspecified) landed at -9.45

Item: O=C(/C=C/c1ccccc1)Nc1ccccc1C(F)(F)F | growth inhibition: 0.7

molecule C[N+](C)(C)/N=C/c1ccc(O)c(O)c1 , growth inhibition observed: -15.3

----------
protocol: NCI Yeast Anticancer Drug Screen. Data for the cln2 rad14 strain (AID 165);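 note: 0% = growth equal to vehicle treated cultures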
condition-parameters: S. cerevisiae cln2 rad14 strain, at 50.0 µM
About 79,000 compounds went through this panel and 15% of them were active in at least one assay; those are over-represented in the sample as a whole. The source made the active and inactive calls. Cut-off read from the data, not from the text of the source: active = growth inhibition above about 70%; inactive = the rest.
Log the outcome using a class from t = active, f = inactive

## Input Status in this test for O=C(Nc1ccc(F)cc1)Nc1cccc(C(=O)O)c1 ?
## Output f

## Input Given COC(=O)C1=C(C)NC(C)=C(C(=O)OC)C1c1cccc(NO)c1 , state the outcome it received in this test.
## Output f

## Input What classification did CC(C)(CCN)[N+](=O)[O-] end up with in this test?
## Output f

## Input Recorded call for CN(C)C(=S)SCC(=O)c1ccccc1 ?
## Output f

## Input // outcome(item) with item = S=C(NCCCN1Cc2ccccc2C1)Nc1ccccc1
## Output f

## Input What did this assay record as the result for COc1ccc2[nH]c3c(C)c4c(c(C)c3c2c1)CN(C)CC4 ?
## Output f

## Input Tell me the recorded outcome of this test for CCCSc1ncnc2c1nc(C)n2CO .
## Output f

## Input State the result this test recorded for CCCC(=O)OCC1OC(n2cc(F)c(=O)[nH]c2=O)CC1O (stereo unspecified) .
## Output f

## Input What did the test return for CN(C)CCCNC(=O)N/N=C\c1cccc2ccccc12 ?
## Output f

## Input Recorded test call requested for O=C(Oc1ccc2c(=O)cc(-c3ccccc3)oc2c1OC(=O)c1ccccc1)c1ccccc1
## Output f

## Input Hi team, can someone confirm the assay call for CC(=O)OCC1OC(n2cnc3c(Cl)nc(Cl)nc32)CC1OC(C)=O (stereo unspecified) ?
## Output f

## Input Can you look up the reported call for NNc1ccc([N+](=O)[O-])c2[nH][nH]c(=O)c12 for me?
## Output f

## Input Record request — test call for COc1c2c(cc3c1C1(O)Cc4ccc5c(c4C[N+]1(C)CC3)OCO5)OCO2 (stereo unspecified)
## Output f

## Input # lookup: test call for COc1cccc2c1[C@@]1(C)C3C(=O)OC(C)(c4ccccc43)[C@@]1(C)C2=O (stereo partly specified)
## Output f

## Input I would be grateful if you could indicate the recorded call for COc1cc2c(cc1OC)C1CC(CC(N)=O)(C(N)=O)CCN1CC2 (stereo unspecified) .
## Output f

## Input Outcome logged for FC(F)(F)c1cccc2[nH]cnc12 in this assay:
## Output f

## Input Hey, what did the test say about O=C(Nc1cc(C(F)(F)F)ccc1Cl)C(=O)C(C(=O)c1ccc2ccccc2c1)C1OC(=O)c2ccccc21 (stereo unspecified) ?
## Output f

## Input Answer briefly: the call reported for N#C/C(=C\c1ccccc1)C(=O)Nc1ccccc1 in this assay.
## Output f

## Input Per the assay record, what outcome was assigned to C/C(=C\C(=N\Nc1nc(C)cc(=O)[nH]1)c1ccccc1)c1ccccc1 ?
## Output f

## Input GET /call?item= O=[N+]([O-])c1ccc2nc(-c3ccccc3[N+](=O)[O-])[nH]c2c1 returns the recorded outcome of this test.
## Output f

## Input Hi, sorry to bother you, what did the test record for CC(=O)C1C(=O)C(=O)N(c2ccc([N+](=O)[O-])cc2Cl)C1=O (stereo unspecified) ?
## Output f

## Input Hi, do you know how COc1ccc(C(c2cc3c(cc2O)OCO3)N2CCN(C(c3cc4c(cc3O)OCO4)c3ccc(OC)cc3OC)CC2)c(OC)c1 (stereo unspecified) came out in this test?
## Output f

## Input For CCCN1C(=O)c2cc(=O)n(Cc3ccccc3)c(O)c2C1C (stereo unspecified) , which call appears in the assay record?
## Output f

## Input What was the test verdict on Cc1ccc(NC(=O)c2cc3cc(N=Nc4ccc(Br)cc4)ccc3oc2=O)cc1 ?
## Output f

## Input Called result for Cc1ccc(S(=O)(=O)OI(O)CC(F)(F)F)cc1
## Output f

## Input For N#Cc1cnn(-c2ccccc2)c1N , what call appears in the results of this test?
## Output f

## Input Assay outcome for CCN(CC)c1ccc(/C=N\NC(=O)CCCC(=O)N/N=C/c2ccc(N(CC)CC)cc2)cc1 : what was it?
## Output f

## Input Would you mind telling me which call this test gave C=CCOC(=O)OCCOC(=O)OCC=C ?
## Output f

## Input Tell me the recorded outcome of this test for COc1cc(CNc2nc3c(N)cc(C(F)(F)F)cc3nc2-c2ccccc2)cc(OC)c1OC .
## Output f

## Input What call does the record list for CC(=O)OC1CC2CCCCC21 (stereo unspecified) ?
## Output f

## Input Per the assay record, what outcome was assigned to NNC(=O)COCC(=O)NN ?
## Output f

## Input Hi, sorry to bother you, what did the test record for O=S(=O)(Nc1ccc(C(F)(F)F)cc1)c1ccc(F)cc1 ?
## Output f

## Input Outcome? O=[N+]([O-])c1ccc(NC2C(O)OC(CO)C(O)C2O)c([N+](=O)[O-])c1 (stereo unspecified)
## Output f

## Input Record lookup: outcome of this test for CC12CC3CC(C)(C1)CC(CN=C(N)CS)(C3)C2 ?
## Output t

## Input Which result was noted for this molecule in the test: CN(C)C(=O)C1C2CCCC(CC2)C1C(=O)N(C)C (stereo unspecified)
## Output f

## Input Given COc1cc2oc(=O)ccc2cc1CC=C(C)C , state the outcome it received in this test.
## Output f

## Input Called result for CN(C)c1nc(OC2C(C(O)CO)OC3OC(C)(C)OC32)nc(N(C)C)n1 (stereo unspecified)
## Output f

## Input Could you check what this test reported for CN1COc2c3c(c4ccccc4c2C1)CN(C)CO3 ?
## Output f

## Input Which outcome was entered for the molecule COc1ccccc1C(O)(c1ccccc1)C(O)(c1ccccc1)c1ccccc1OC (stereo unspecified) in this test?
## Output f

## Input Would you mind telling me which call this test gave Nc1cc(N)nc(S(=O)(=O)O)n1 ?
## Output f

## Input How was O=C(Oc1ccc([N+](=O)[O-])cc1)C(CSC(c1ccccc1)(c1ccccc1)c1ccccc1)NC(c1ccccc1)(c1ccccc1)c1ccccc1 (stereo unspecified) classified in this test?
## Output f

## Input Hi, sorry to bother you, what did the test record for CN(C)CCCOc1ccc(/C=C2/CCC/C(=C/c3ccc(OCCCN(C)C)cc3)C2=O)cc1 ?
## Output f

## Input In this assay, the call recorded for S=C(SCc1nc(-c2ccc(Cl)cc2)no1)N1CCSCC1 was what?
## Output f

## Input I would be grateful if you could indicate the recorded call for CCCCCCC(C)C(=O)Nc1ccccc1 (stereo unspecified) .
## Output f

## Input Hi, sorry to bother you, what did the test record for CCCCCCCCC(CO)CCCCCC (stereo unspecified) ?
## Output f

## Input Could you kindly confirm the outcome this assay logged for COc1cc(C(=O)C(O)c2cc(OC)c(OC)c(OC)c2)cc(OC)c1OC (stereo unspecified) ?
## Output f
